- Target: Solute carrier family 22 member 1 (Rattus norvegicus)
- Sequence (Q63089 whole entry): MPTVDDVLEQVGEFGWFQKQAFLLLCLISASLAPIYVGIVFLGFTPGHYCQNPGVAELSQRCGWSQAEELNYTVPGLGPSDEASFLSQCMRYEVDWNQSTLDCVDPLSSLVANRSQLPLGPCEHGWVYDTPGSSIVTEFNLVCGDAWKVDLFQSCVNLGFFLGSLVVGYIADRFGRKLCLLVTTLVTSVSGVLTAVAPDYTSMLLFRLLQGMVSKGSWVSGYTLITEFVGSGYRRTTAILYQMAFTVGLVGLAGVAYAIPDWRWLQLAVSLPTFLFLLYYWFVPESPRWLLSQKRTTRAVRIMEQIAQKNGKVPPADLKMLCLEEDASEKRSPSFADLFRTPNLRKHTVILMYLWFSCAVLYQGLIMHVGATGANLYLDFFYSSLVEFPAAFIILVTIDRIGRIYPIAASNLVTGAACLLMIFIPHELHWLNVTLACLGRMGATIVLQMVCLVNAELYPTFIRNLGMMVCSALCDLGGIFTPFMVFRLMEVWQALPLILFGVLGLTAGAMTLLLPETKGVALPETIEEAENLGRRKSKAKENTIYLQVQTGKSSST
- Procedure text: TP_TRANSPORTER: uptake (electrogenesis) in Xenopus laevis oocytes
- Format: functional, cell-based
- Run parameters: oocyte
Endpoint name: Activity

CC[n+]1c(CC2C=C(C)N=C(c3ccccc3)N2C)ccc2ccccc21.[Cl-] (centres undefined) [Cyanine-863] = substrate [+]
CC(=O)O[C@H]1C[C@@H]2CC[C@@H]3[C@H](CC[C@@]4(C)[C@H]3C[C@H]([N+]3(C)CCCCC3)[C@@H]4OC(C)=O)[C@@]2(C)C[C@@H]1[N+]1(C)CCCCC1 [PANCURONIUM] = substrate [+]
NCCCNCCCCNCCCN [SPERMINE] = substrate [+]
NCCCCNCCCN [SPERMIDINE] = substrate [+]

This collection of values is drawn from ChEMBL document CHEMBL2074471.
